Numbers sourced from patent US12473262B2.

# target-or-test-system: aryl hydrocarbon receptor (AhR) (Mus musculus (Mouse))
# Sequence (P30561 10-805): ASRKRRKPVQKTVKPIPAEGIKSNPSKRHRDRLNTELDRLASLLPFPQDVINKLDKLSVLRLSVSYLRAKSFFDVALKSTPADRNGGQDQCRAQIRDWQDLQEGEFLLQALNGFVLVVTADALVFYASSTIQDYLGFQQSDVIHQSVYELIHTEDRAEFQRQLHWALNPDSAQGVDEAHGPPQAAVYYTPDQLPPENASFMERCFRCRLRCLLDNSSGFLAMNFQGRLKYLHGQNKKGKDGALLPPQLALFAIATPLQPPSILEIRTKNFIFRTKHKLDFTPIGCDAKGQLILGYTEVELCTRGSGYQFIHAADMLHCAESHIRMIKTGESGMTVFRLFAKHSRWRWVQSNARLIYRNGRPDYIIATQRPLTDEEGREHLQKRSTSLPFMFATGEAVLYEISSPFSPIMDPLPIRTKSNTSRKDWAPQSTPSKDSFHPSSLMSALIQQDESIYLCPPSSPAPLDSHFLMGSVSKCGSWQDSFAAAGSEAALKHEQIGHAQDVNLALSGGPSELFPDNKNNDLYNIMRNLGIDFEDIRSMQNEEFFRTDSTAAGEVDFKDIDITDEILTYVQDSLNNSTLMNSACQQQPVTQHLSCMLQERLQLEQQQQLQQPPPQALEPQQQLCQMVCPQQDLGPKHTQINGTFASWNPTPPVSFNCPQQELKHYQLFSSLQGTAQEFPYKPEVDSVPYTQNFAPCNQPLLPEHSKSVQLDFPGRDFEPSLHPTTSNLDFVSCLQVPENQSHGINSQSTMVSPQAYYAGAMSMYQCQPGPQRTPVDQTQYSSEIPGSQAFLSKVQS
# Sequence (P53762 whole entry partner): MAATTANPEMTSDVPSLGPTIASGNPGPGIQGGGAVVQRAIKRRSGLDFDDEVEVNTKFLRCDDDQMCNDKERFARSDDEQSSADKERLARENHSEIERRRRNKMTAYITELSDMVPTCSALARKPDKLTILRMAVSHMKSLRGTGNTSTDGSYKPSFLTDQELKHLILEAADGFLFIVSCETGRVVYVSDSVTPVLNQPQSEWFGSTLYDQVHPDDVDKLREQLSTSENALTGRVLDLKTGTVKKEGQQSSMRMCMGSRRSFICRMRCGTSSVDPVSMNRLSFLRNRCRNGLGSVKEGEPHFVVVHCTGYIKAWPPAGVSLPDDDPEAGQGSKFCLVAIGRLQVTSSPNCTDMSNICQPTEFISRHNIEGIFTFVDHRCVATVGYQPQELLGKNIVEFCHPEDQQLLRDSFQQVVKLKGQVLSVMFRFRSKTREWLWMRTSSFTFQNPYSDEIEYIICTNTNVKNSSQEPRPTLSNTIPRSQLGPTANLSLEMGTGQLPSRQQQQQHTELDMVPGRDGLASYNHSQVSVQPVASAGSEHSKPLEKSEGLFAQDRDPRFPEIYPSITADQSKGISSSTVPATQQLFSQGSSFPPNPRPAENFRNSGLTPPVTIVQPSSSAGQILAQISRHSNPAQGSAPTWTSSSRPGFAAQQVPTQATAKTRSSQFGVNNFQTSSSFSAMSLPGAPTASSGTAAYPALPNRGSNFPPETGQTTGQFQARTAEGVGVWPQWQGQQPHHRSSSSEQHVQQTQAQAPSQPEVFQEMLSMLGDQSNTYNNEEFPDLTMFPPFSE
# method-summary: AhR ligand screening: AhRE-luciferase reporter in transfected Hepa1 cells
# Format: cell-based
# condition-info: fold change of luciferase expression at 10 uM test compound relative to vehicle (0.1% DMSO)
Hi there, I'd appreciate the recorded Fold @ 10 uM for every entry that follows.
Answers are plain numbers, in fold.

O=C(c1ccc2nc(-c3cccc4ccccc34)n(Cc3cccc4ccccc34)c2c1)N1CCOCC1	4
O=C(c1ccc2c(c1)nc(-c1cccc3ccccc13)n2S(=O)(=O)c1ccc2ccccc2c1)N1CCOCC1	4
CN1CCN(C(=O)c2ccc3nc(-c4cccc5ccccc45)n(S(=O)(=O)c4cccc(F)c4)c3c2)CC1	4
O=C(c1ccc(SC(F)(F)F)cc1)n1c(-c2cccc3ccccc23)nc2ccc(Cl)cc21	32

Batch request: Fold @ 10 uM for each of the following compounds.
1. O=C(c1ccc(F)c(F)c1)n1c(-c2cccc3ccccc23)nc2cc(Cl)c(Cl)cc21
2. N#Cc1ccc(C(=O)n2c(-c3cccc4ccccc34)nc3ccc(Cl)cc32)cc1
3. COC(=O)c1ccc2c(c1)nc(-c1cccc3ccccc13)n2S(=O)(=O)c1ccc(C#N)cc1
4. COc1ccc2c(c1)nc(-c1cccc3ccccc13)n2C(=O)c1ccccc1

1: 85; 2: 47; 3: 2; 4: 5

Batch request: Fold @ 10 uM for each of the following compounds.
1. O=C(c1ccccc1)n1c(-c2cccc3ccccc23)nc2cc(Cl)c(Cl)cc21
2. O=C(c1c(F)cc(Br)cc1F)n1c(-c2cccc3ccccc23)nc2cc(Cl)ccc21
3. O=C(c1ccc(F)c(F)c1)n1c(-c2cccc(C(F)(F)F)c2Cl)nc2cc(Cl)ccc21
4. COc1ccc(C(=O)n2c(-c3cc4ccccc4s3)nc3cc(Cl)ccc32)cc1
5. O=C(c1ccc(F)c(F)c1)n1c(-c2cccc3ccccc23)nc2cc(F)ccc21

1. 87
2. 20
3. 48
4. 45
5. 9

Batch request: Fold @ 10 uM for each of the following compounds.
1. O=C(c1ccccc1)n1c(-c2ccc(F)c3ccccc23)nc2cc(Cl)ccc21
2. Fc1ccc(-n2c(-c3cccc4ccccc34)nc3cc(Cl)ccc32)nc1

1: 34; 2: 4
